meta.source: patent US20230416232A1

assay_target: EGFR (H773insNPH) expressing Ba/F3 stable cell line (Homo sapiens, UniProt P00533, DUP771-773, cells depend on it)
Sequence (P00533 with tags, fused parts or gaps DUP771-773): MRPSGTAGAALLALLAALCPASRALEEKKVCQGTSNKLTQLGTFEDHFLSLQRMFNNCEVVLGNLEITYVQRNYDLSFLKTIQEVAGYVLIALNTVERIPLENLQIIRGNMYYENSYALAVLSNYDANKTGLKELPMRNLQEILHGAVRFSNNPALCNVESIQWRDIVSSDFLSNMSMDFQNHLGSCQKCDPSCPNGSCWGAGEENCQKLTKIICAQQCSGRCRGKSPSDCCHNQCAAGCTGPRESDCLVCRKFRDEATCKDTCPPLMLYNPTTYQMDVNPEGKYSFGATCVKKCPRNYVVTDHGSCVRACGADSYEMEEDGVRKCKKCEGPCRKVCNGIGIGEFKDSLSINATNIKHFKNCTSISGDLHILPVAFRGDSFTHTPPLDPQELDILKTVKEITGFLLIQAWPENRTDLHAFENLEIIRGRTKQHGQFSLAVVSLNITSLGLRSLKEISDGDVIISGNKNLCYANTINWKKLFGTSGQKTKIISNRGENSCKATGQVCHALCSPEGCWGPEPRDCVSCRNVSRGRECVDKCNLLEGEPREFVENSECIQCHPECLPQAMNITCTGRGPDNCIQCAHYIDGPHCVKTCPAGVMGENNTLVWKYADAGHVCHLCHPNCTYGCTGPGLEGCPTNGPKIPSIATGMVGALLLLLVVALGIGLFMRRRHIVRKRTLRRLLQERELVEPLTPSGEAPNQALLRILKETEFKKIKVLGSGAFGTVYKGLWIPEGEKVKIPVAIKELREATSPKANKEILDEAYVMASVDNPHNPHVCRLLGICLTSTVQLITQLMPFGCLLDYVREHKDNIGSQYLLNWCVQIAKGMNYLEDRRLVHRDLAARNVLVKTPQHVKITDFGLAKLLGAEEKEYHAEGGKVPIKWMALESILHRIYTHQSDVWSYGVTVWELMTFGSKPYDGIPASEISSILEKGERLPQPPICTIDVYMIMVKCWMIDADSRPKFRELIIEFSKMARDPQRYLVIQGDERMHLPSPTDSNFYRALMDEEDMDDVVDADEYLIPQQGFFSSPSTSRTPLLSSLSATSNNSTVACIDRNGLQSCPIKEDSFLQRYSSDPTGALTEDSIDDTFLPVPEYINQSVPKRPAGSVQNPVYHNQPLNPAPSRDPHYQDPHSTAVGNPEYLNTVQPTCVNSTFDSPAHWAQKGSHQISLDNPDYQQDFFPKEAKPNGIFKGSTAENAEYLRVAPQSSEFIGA
method_description: Cellular proliferation (Alamar Blue) assay, EGFR (H773insNPH) Ba/F3
Type: cell-based
measurement_conditions: 72 hr, read-out: NPH IC50
Method: Cell line details: • 1. EGFR(D770_N771insSVD) expressing Ba/F3 stable cell line • 2. EGFR (A767_dupASV) expressing Ba/F3 stable cell line • 3. A431 cells • 4. EGFR (H773insNPH) expressing Ba/F3 stable cell line • 5. HER2 (A775_G776insYVMA) expressing Ba/F3 stable cell line • 1. Seed cells at 5000 for A431 and 15,000 cells for Ba/F3 in 100 μL/well in complete media (for A431: DMEM with 10% FBS and for Ba/F3 cells: RPMI with 10% FBS) in 96-well tissue culture plate. […]
Structures can show the parent of a compound that is named as a salt.
Reported GI50 maps to class as: I = under 0.06 µM, II = from 0.06 µM up to 0.1 µM, III = 0.1 µM and over

[[record]]
compound = "C=CC(=O)Nc1cccc(Nc2nc(Nc3cnn(C)c3)ncc2-c2ccc(F)c(Cl)c2)c1"
answer_label = "I"

[[record]]
compound = "C=CC(=O)Nc1ccc(F)c(Nc2nc(Nc3cnn(C)c3)ncc2-c2ccc(N3CCOCC3)c(F)c2)c1"
answer_label = "III"

[[record]]
compound = "C=CC(=O)Nc1ccc(F)c(Nc2nc(Nc3cnn(C)c3)ncc2-c2ccc(C)c(F)c2)c1"
answer_label = "II"

[[record]]
compound = "C=CC(=O)Nc1ccc(F)c(Nc2nc(Nc3cnn(C)c3)ncc2-c2ccc(F)c(F)c2)c1"
answer_label = "II"

[[record]]
compound = "C=CC(=O)Nc1ccc(F)c(Nc2nc(Nc3cnn(C)c3)ncc2-c2cc(F)cc(Cl)c2)c1"
answer_label = "I"

[[record]]
compound = "C=CC(=O)Nc1ccc(F)c(Nc2nc(Nc3cnn(C)c3)ncc2-c2ccc(C(F)(F)F)c(Cl)c2)c1"
answer_label = "III"

[[record]]
compound = "C=CC(=O)Nc1ccc(F)c(Nc2nc(Nc3cnn(CCO)c3)ncc2-c2ccc(F)c(Cl)c2)c1"
answer_label = "II"

[[record]]
compound = "C=CC(=O)Nc1ccc(F)c(Nc2nc(Nc3cnn(C)c3)ncc2-c2ccc(N3CCCCC3)c(F)c2)c1"
answer_label = "III"

[[record]]
compound = "C=CC(=O)Nc1ccc(F)c(Nc2nc(Nc3cnn(C)c3)ncc2-c2ccc(OC(F)F)c(F)c2)c1"
answer_label = "I"

[[record]]
compound = "C=CC(=O)Nc1ccc(F)c(Nc2nc(Nc3cnn(C4COC4)c3)ncc2-c2ccc(F)c(Cl)c2)c1"
answer_label = "III"

[[record]]
compound = "C=CC(=O)Nc1ccc(F)c(Nc2nc(Nc3cnn(C)c3)ncc2-c2ccc(F)c(Br)c2)c1 [Compound 18, trifluoroacetate]"
answer_label = "I"

[[record]]
compound = "C=CC(=O)Nc1ccc(F)c(Nc2nc(Nc3cnn(C)c3)ncc2-c2cnc(C)c(Cl)c2)c1"
answer_label = "I"

[[record]]
compound = "C=CC(=O)Nc1ccc(F)c(Nc2nc(Nc3cnn(CCO)c3)ncc2-c2ccc(Br)c(F)c2)c1"
answer_label = "II"

[[record]]
compound = "C=CC(=O)Nc1ccc(F)c(Nc2nc(Nc3cnn(C)c3)ncc2-c2ccc(N3CCCOCC3)c(F)c2)c1"
answer_label = "II"


###

assay_target: EGFR (A767_dupASV) expressing Ba/F3 stable cell line (Homo sapiens, UniProt P00533, DUP767-769, cells depend on it)
Sequence (P00533 with tags, fused parts or gaps DUP767-769): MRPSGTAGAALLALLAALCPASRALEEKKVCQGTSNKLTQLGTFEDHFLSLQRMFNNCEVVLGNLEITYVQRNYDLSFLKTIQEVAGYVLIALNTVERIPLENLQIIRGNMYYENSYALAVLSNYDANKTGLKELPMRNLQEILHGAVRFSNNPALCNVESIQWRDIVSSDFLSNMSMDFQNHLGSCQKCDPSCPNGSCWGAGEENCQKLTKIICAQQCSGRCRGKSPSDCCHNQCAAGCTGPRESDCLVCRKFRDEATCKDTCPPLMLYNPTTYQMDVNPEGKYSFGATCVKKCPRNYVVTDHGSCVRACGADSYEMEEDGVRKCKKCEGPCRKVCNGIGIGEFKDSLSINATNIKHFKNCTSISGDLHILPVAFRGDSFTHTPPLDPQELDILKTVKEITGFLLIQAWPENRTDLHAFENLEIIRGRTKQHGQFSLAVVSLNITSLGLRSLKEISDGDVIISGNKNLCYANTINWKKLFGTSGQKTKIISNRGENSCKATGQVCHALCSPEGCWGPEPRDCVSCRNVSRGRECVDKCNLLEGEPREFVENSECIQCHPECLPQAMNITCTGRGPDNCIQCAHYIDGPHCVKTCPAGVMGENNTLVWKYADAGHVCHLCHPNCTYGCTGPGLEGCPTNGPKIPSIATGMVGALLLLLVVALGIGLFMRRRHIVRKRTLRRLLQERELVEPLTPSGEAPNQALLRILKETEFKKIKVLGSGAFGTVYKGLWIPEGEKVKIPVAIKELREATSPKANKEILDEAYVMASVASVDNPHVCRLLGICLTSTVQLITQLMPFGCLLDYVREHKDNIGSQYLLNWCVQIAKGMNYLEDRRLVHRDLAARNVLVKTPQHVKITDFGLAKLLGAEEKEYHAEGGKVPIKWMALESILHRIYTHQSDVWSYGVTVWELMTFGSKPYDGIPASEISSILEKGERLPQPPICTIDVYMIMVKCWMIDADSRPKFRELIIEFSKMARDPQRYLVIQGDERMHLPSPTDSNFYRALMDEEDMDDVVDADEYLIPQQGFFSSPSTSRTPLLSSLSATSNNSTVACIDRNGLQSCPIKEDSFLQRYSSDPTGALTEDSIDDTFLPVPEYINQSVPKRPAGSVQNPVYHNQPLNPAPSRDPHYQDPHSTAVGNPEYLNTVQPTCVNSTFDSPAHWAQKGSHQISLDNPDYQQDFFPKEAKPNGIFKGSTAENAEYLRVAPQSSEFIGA
method_description: Cellular proliferation (Alamar Blue) assay, EGFR (A767_dupASV) Ba/F3
Type: cell-based
measurement_conditions: 72 hr, read-out: A767 IC50
Procedure: Cell line details: • 1. EGFR(D770_N771insSVD) expressing Ba/F3 stable cell line • 2. EGFR (A767_dupASV) expressing Ba/F3 stable cell line • 3. A431 cells • 4. EGFR (H773insNPH) expressing Ba/F3 stable cell line • 5. HER2 (A775_G776insYVMA) expressing Ba/F3 stable cell line • 1. Seed cells at 5000 for A431 and 15,000 cells for Ba/F3 in 100 μL/well in complete media (for A431: DMEM with 10% FBS and for Ba/F3 cells: RPMI with 10% FBS) in 96-well tissue culture plate. […]
As shown below, each of these compounds has a reported log10 of GI50 value.
measure: log10 of GI50 (log10 of the value in nM)

[[record]]
molecule_smiles = "C=CC(=O)Nc1ccc(F)c(Nc2nc(Nc3cnn(C)c3)ncc2-c2cc(F)cc(N(C)C)c2)c1"
measure = "log10 of GI50"
endpoint_value = 2.87

[[record]]
molecule_smiles = "C=CC(=O)Nc1cccc(Nc2nc(Nc3cnn(C)c3)ncc2-c2cc(F)cc(C(F)F)c2)c1"
measure = "log10 of GI50"
endpoint_value = 1.61

[[record]]
molecule_smiles = "C=CC(=O)Nc1ccc(F)c(Nc2nc(Nc3cnn(C)c3)ncc2-c2ccc(N3CCN(C)CC3)c(F)c2)c1"
measure = "log10 of GI50"
endpoint_value = 2.54

[[record]]
molecule_smiles = "C=CC(=O)Nc1ccc(F)c(Nc2nc(Nc3cnn(C)c3)ncc2-c2ccc(F)c(OC)c2)c1"
measure = "log10 of GI50"
endpoint_value = 2.47

[[record]]
molecule_smiles = "C=CC(=O)Nc1ccc(F)c(Nc2nc(Nc3cnn(C)c3)ncc2-c2ccc(N3CCCCCC3)c(F)c2)c1"
measure = "log10 of GI50"
endpoint_value = 2.43

[[record]]
molecule_smiles = "C=CC(=O)Nc1ccc(F)c(Nc2nc(Nc3cnn(C)c3)ncc2-c2ccc(N3CC(OC)C3)c(F)c2)c1"
measure = "log10 of GI50"
endpoint_value = 2.39

[[record]]
molecule_smiles = "C=CC(=O)Nc1ccc(F)c(Nc2nc(Nc3cnn(C)c3)ncc2-c2cc(Cl)cc(Cl)c2)c1"
measure = "log10 of GI50"
endpoint_value = 2.20

[[record]]
molecule_smiles = "C=CC(=O)Nc1ccc(F)c(Nc2nc(Nc3cnn(C)c3)ncc2-c2ccc(C(F)(F)F)cc2OC)c1"
measure = "log10 of GI50"
endpoint_value = 3.51

[[record]]
molecule_smiles = "C=CC(=O)Nc1ccc(F)c(Nc2nc(Nc3cnn(C)c3)ncc2-c2cnc(C)c(Cl)c2)c1"
measure = "log10 of GI50"
endpoint_value = 1.46

[[record]]
molecule_smiles = "C=CC(=O)Nc1ccc(F)c(Nc2nc(Nc3cnn(C)c3)ncc2-c2cc(F)c(F)c(OC)c2)c1"
measure = "log10 of GI50"
endpoint_value = 2.00

[[record]]
molecule_smiles = "C=CC(=O)Nc1cc(Br)cc(Nc2nc(Nc3cnn(C)c3)ncc2-c2cc(F)cc(Cl)c2)c1"
measure = "log10 of GI50"
endpoint_value = 2.49

[[record]]
molecule_smiles = "Cn1cc(Nc2ncc(-c3ccc(Br)c(F)c3)c(Nc3cc(NC(=O)/C=C/CF)ccc3F)n2)cn1"
measure = "log10 of GI50"
endpoint_value = 2.35

[[record]]
molecule_smiles = "C=CC(=O)Nc1ccc(F)c(Nc2nc(Nc3cnn(C)c3)ncc2-c2cc(F)cc(C(F)(F)F)c2)c1"
measure = "log10 of GI50"
endpoint_value = 1.49

[[record]]
molecule_smiles = "C=CC(=O)Nc1ccc(F)c(Nc2nc(Nc3cnn(C)c3)ncc2-c2ccc(F)c(C(F)(F)F)c2)c1"
measure = "log10 of GI50"
endpoint_value = 1.94

[[record]]
molecule_smiles = "C=CC(=O)Nc1ccc(F)c(Nc2nc(Nc3cnn(C)c3)ncc2-c2ccc(F)c(Cl)c2)c1"
measure = "log10 of GI50"
endpoint_value = 1.90


###

assay_target: HER2 (A775_G776insYVMA) expressing Ba/F3 stable cell line (Homo sapiens, UniProt P04626, DUP772-775, cells depend on it)
Sequence (P04626 with tags, fused parts or gaps DUP772-775): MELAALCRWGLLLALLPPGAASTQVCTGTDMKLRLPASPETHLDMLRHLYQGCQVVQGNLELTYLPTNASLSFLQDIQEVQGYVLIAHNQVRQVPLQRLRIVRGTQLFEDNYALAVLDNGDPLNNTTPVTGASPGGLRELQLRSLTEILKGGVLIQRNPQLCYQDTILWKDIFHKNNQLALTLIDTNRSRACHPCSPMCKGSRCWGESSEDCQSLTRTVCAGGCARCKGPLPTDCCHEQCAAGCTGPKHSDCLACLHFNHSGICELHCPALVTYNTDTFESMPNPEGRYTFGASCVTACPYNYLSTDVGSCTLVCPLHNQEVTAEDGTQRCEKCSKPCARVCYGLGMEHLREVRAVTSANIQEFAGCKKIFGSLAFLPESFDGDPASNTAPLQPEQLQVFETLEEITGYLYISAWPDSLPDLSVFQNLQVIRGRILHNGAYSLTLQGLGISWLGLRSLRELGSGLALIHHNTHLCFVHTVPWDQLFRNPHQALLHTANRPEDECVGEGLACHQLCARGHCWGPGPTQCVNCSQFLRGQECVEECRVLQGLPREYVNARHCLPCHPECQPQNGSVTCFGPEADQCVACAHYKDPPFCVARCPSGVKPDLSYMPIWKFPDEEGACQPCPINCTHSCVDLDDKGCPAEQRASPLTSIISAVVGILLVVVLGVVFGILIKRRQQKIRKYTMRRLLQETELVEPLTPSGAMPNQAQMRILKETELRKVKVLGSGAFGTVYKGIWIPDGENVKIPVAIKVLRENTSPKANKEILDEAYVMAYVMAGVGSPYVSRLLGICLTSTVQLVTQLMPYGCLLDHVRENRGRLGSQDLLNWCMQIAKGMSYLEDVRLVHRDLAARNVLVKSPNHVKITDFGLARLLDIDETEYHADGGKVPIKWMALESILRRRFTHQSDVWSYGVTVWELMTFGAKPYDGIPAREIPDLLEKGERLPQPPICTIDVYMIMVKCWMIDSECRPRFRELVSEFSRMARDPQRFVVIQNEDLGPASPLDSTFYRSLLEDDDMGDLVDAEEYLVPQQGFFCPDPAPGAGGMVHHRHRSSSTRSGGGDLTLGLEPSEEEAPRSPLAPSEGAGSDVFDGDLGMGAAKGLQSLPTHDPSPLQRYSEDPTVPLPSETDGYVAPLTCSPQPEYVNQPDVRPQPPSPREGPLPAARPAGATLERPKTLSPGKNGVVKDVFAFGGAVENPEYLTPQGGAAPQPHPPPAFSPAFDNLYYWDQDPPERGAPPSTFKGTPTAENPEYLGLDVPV
method_description: Cellular proliferation (Alamar Blue) assay, HER2 (A775_G776insYVMA) Ba/F3
Type: cell-based
measurement_conditions: HER2 (A775_G776insYVMA) Ba/F3 cells; 72 hr; Alamar Blue; read-out: YVMA IC50
Structures can show the parent of a compound that is named as a salt.
Below, each entry is listed alongside its reported GI50.
measure: GI50 (nM)

[[record]]
molecule = "C=CC(=O)Nc1ccc(F)c(Nc2nc(Nc3cnn(C)c3)ncc2-c2cnc(C)c(Cl)c2)c1 [Compound 46]"
measure = "GI50"
value_modifier = "="
endpoint_value = 34

[[record]]
molecule = "C=CC(=O)Nc1ccc(F)c(Nc2nc(Nc3cnn(C)c3)ncc2-c2cc(F)c(C(F)(F)F)c(F)c2)c1 [Compound 20, trifluoroacetate]"
measure = "GI50"
value_modifier = "="
endpoint_value = 164

[[record]]
molecule = "C=CC(=O)Nc1ccc(F)c(Nc2nc(Nc3cnn(C)c3)ncc2-c2ccc(F)c(F)c2)c1 [Compound 5]"
measure = "GI50"
value_modifier = "="
endpoint_value = 208

[[record]]
molecule = "C=CC(=O)Nc1ccc(F)c(Nc2nc(Nc3cnn(C)c3)ncc2-c2ccc(OC)c(F)c2)c1 [Compound 1]"
measure = "GI50"
value_modifier = "="
endpoint_value = 91

[[record]]
molecule = "C=CC(=O)Nc1ccc(F)c(Nc2nc(Nc3cnn(C)c3)ncc2-c2cnc(Cl)c(F)c2)c1 [Compound 45]"
measure = "GI50"
value_modifier = "="
endpoint_value = 16

[[record]]
molecule = "C=CC(=O)Nc1ccc(F)c(Nc2nc(Nc3cnn(C)c3)ncc2-c2ccc(Cl)c(Cl)c2)c1 [Compound 50]"
measure = "GI50"
value_modifier = "="
endpoint_value = 86

[[record]]
molecule = "C=CC(=O)Nc1ccc(F)c(Nc2nc(Nc3cnn(CCN(C)C)c3)ncc2-c2ccc(N3CCCCC3)c(F)c2)c1 [Compound 82]"
measure = "GI50"
value_modifier = "="
endpoint_value = 149

[[record]]
molecule = "C=CC(=O)Nc1cccc(Nc2nc(Nc3cnn(C)c3)ncc2-c2cc(F)c(C(F)(F)F)c(F)c2)c1 [Compound 153]"
measure = "GI50"
value_modifier = "="
endpoint_value = 98

[[record]]
molecule = "C=CC(=O)Nc1ccc(F)c(Nc2nc(Nc3cnn(C4CCOC4)c3)ncc2-c2ccc(Br)c(F)c2)c1 (centres unmarked) [Compound 93]"
measure = "GI50"
value_modifier = "="
endpoint_value = 173

[[record]]
molecule = "C=CC(=O)Nc1ccc(F)c(Nc2nc(Nc3cnn(C)c3)ncc2-c2cc(F)cc(N3CCCC3)c2)c1 [Compound 121]"
measure = "GI50"
value_modifier = ">"
endpoint_value = 10000

[[record]]
molecule = "C=CC(=O)Nc1ccc(F)c(Nc2nc(Nc3cnn(C)c3)ncc2-c2ccc(N3CCCCC3)c(F)c2)c1 [Compound 78]"
measure = "GI50"
value_modifier = "="
endpoint_value = 286

[[record]]
molecule = "C=CC(=O)Nc1ccc(F)c(Nc2nc(Nc3cnn(C)c3)ncc2-c2cc(F)c(F)c(F)c2)c1 [Compound 149]"
measure = "GI50"
value_modifier = "="
endpoint_value = 92

[[record]]
molecule = "CN(C)C/C=C/C(=O)Nc1ccc(F)c(Nc2nc(Nc3cnn(C)c3)ncc2-c2cc(F)cc(F)c2)c1 [Compound 117]"
measure = "GI50"
value_modifier = "="
endpoint_value = 141

[[record]]
molecule = "C=CC(=O)Nc1cccc(Nc2nc(Nc3cnn(C)c3)ncc2-c2ccc(N(C)C)c(F)c2)c1 [Compound 30]"
measure = "GI50"
value_modifier = "="
endpoint_value = 91

[[record]]
molecule = "C=CC(=O)Nc1ccc(F)c(Nc2nc(Nc3cnn(C)c3)ncc2-c2cc(C(F)F)cc(C(F)F)c2)c1 [Compound 155]"
measure = "GI50"
value_modifier = "="
endpoint_value = 1670

[[record]]
molecule = "[2H]C([2H])=CC(=O)Nc1ccc(F)c(Nc2nc(Nc3cnn(C)c3)ncc2-c2ccc(Br)c(F)c2)c1 [Compound 102]"
measure = "GI50"
value_modifier = "="
endpoint_value = 117

[[record]]
molecule = "C=CC(=O)Nc1cc(Cl)cc(Nc2nc(Nc3cnn(C)c3)ncc2-c2ccc(Br)c(F)c2)c1 [Compound 159]"
measure = "GI50"
value_modifier = "="
endpoint_value = 125

[[record]]
molecule = "Cn1cc(Nc2ncc(-c3ccc(Br)c(F)c3)c(Nc3cc(NC(=O)/C=C/CF)ccc3F)n2)cn1 [Compound 175]"
measure = "GI50"
value_modifier = "="
endpoint_value = 1620

[[record]]
molecule = "C=CC(=O)Nc1ccc(F)c(Nc2nc(Nc3cnn(C)c3)ncc2-c2ccc(OC)cc2F)c1 [Compound 7]"
measure = "GI50"
value_modifier = "="
endpoint_value = 377

[[record]]
molecule = "C=CC(=O)Nc1ccc(F)c(Nc2nc(Nc3cnn(C4COC4)c3)ncc2-c2ccc(F)c(Cl)c2)c1 [Compound 53]"
measure = "GI50"
value_modifier = "="
endpoint_value = 211

[[record]]
molecule = "C=CC(=O)Nc1ccc(F)c(Nc2nc(Nc3cnn(C)c3)ncc2-c2ccc(C(F)F)c(F)c2)c1 [Compound 37]"
measure = "GI50"
value_modifier = "="
endpoint_value = 93

[[record]]
molecule = "C=CC(=O)Nc1cccc(Nc2nc(Nc3cnn(C)c3)ncc2-c2cc(F)cc(OC)c2)c1 [Compound 127]"
measure = "GI50"
value_modifier = "="
endpoint_value = 167

[[record]]
molecule = "Cn1cc(Nc2ncc(-c3ccc(Br)c(F)c3)c(Nc3cc(NC(=O)/C=C/CN4CCCCC4)ccc3F)n2)cn1 [Compound 142]"
measure = "GI50"
value_modifier = "="
endpoint_value = 738

[[record]]
molecule = "CN(C)C/C=C/C(=O)Nc1ccc(F)c(Nc2nc(Nc3cnn(C)c3)ncc2-c2ccc(Br)c(F)c2)c1 [Compound 105]"
measure = "GI50"
value_modifier = "="
endpoint_value = 125

[[record]]
molecule = "C=CC(=O)Nc1ccc(F)c(Nc2nc(Nc3cnn(C)c3)ncc2-c2ccc(Br)c(Cl)c2)c1 [Compound 88]"
measure = "GI50"
value_modifier = "="
endpoint_value = 118

[[record]]
molecule = "C=CC(=O)Nc1ccc(F)c(Nc2nc(Nc3cnn(C)c3)ncc2-c2cc(F)cc(OC(C)C)c2)c1 [Compound 129]"
measure = "GI50"
value_modifier = ">"
endpoint_value = 10000

[[record]]
molecule = "C=CC(=O)Nc1ccc(F)c(Nc2nc(Nc3cnn(C)c3)ncc2-c2cc(Cl)cc(Cl)c2)c1 [Compound 32]"
measure = "GI50"
value_modifier = "="
endpoint_value = 1160

[[record]]
molecule = "C=CC(=O)Nc1cc(Br)cc(Nc2nc(Nc3cnn(C)c3)ncc2-c2cc(F)cc(Cl)c2)c1 [Compound 173]"
measure = "GI50"
value_modifier = "="
endpoint_value = 1520

[[record]]
molecule = "C=CC(=O)Nc1ccc(F)c(Nc2nc(Nc3cnn(C)c3)ncc2-c2ccc(C(F)(F)F)c(Cl)c2)c1 [Compound 54]"
measure = "GI50"
value_modifier = "="
endpoint_value = 260

